Values were extracted from ChEMBL document CHEMBL5096202.

- target.system: Cannabinoid receptor 1 (Homo sapiens)
- experiment.description: Agonist activity at recombinant human CB1 receptor expressed in CHO cells assessed as inhibition of forskolin-induced cAMP accumulation preincubated for 15 mins followed by forskolin stimulation and measured after 15 mins by HTRF assay
pEC50: −log10 of the molar value.

- query.smiles: "CCCC[Si](C)(C)c1cc(O)c(C2CCCCCC2)c(O)c1"
  pEC50: 6.08
- query.smiles: "CCCC[Si](C)(C)c1cc(O)c2c(c1)OC(C)(C)[C@@H]1CCC(C)=C[C@@H]21"
  pEC50: 7.86
- query.smiles: "CCCC[Si](C)(C)c1cc(O)c2c(c1)OC(C)(C)[C@@H]1CC=C(CO)C[C@@H]21"
  pEC50: 7.45
- query.smiles: "C=C(C)[C@@H]1CCC(C)=C[C@H]1c1c(O)cc([Si](C)(C)CCCC)cc1O"
  pEC50: 6.39
- query.smiles: "CCCCCC[Si](C)(C)c1cc(O)c(C2CCCCCC2)c(OC)c1"
  pEC50: 5.51
- query.smiles: "CCCCCC[Si](C)(C)c1cc(O)c2c(c1)OC(C)(C)[C@@H]1CCC(C)=C[C@@H]21"
  pEC50: 8.23
- query.smiles: "C=C(C)[C@@H]1CCC(C)=C[C@H]1c1c(O)cc([Si](C)(C)CCCCCC)cc1O"
  pEC50: 6.66
- query.smiles: "CCCCCC[Si](C)(C)c1cc(O)c(C2CCCCC2)c(O)c1"
  pEC50: 6.34
- query.smiles: "CCCCCC[Si](C)(C)c1cc(O)c2c(c1)OC(C)(C)c1ccc(CO)cc1-2"
  pEC50: 7.23
- query.smiles: "CCCCCC[Si](C)(C)c1cc(O)c(C2CCCCCC2)c(O)c1"
  pEC50: 6.89

---

- target.system: Cannabinoid receptor 2 (Homo sapiens)
- Sequence (P34972 whole entry): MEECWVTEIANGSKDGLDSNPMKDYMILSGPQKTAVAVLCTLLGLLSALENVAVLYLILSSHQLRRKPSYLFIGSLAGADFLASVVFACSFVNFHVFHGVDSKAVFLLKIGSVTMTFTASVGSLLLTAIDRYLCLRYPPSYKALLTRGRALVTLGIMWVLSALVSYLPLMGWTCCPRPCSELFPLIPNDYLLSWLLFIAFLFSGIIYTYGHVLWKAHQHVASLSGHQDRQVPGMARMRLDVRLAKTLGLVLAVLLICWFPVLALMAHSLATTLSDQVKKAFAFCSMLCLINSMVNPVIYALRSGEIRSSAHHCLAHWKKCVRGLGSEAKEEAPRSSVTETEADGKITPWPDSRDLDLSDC
- experiment.description: Displacement of [3H]-CP55940 from recombinant human CB2 receptor expressed in CHO cells assessed as inhibition constant incubated for 120 mins by radioligand binding assay
- Assay type: cell-based
Classify: satisfied when Ki is strictly less than 70 nM; not satisfied when Ki is not.

- query.smiles: "CCCCCC[Si](C)(C)c1cc(O)c(C2CCCC2)c(OC)c1"
  class.label: "not satisfied"
- query.smiles: "CCCC[Si](C)(C)c1cc(O)c2c(c1)OC(C)(C)c1ccc(C)cc1-2"
  class.label: "satisfied"
- query.smiles: "CCCC[Si](C)(C)c1cc(O)c(C2CCCCC2)c(O)c1"
  class.label: "satisfied"
- query.smiles: "CCCCCC[Si](C)(C)c1cc(O)c(C2CCCCCC2)c(OC)c1"
  class.label: "satisfied"
- query.smiles: "CCCCCC[Si](C)(C)c1cc(OC)c([C@H]2C=C(CO)[C@H]3C[C@@H]2C3(C)C)c(OC)c1"
  class.label: "not satisfied"
- query.smiles: "C=C(C)[C@@H]1CCC(C)=C[C@H]1c1c(O)cc([Si](C)(C)CCCCCC)cc1O"
  class.label: "satisfied"
- query.smiles: "CCCC[Si](C)(C)c1cc(O)c(C2CCCCCC2)c(OC)c1"
  class.label: "not satisfied"
- query.smiles: "CCCCCC[Si](C)(C)c1cc(O)c(C2CCCCC2)c(O)c1"
  class.label: "satisfied"
- query.smiles: "C=C(C)[C@@H]1CCC(C)=C[C@H]1c1c(O)cc([Si](C)(C)CCCC)cc1O"
  class.label: "satisfied"
- query.smiles: "CC[Si](C)(C)c1cc(O)c2c(c1)OC(C)(C)[C@@H]1CCC(C)=C[C@@H]21"
  class.label: "not satisfied"

---

- target.system: Cannabinoid receptor 1 (Homo sapiens, UniProt P21554)
- Sequence (P21554 whole entry): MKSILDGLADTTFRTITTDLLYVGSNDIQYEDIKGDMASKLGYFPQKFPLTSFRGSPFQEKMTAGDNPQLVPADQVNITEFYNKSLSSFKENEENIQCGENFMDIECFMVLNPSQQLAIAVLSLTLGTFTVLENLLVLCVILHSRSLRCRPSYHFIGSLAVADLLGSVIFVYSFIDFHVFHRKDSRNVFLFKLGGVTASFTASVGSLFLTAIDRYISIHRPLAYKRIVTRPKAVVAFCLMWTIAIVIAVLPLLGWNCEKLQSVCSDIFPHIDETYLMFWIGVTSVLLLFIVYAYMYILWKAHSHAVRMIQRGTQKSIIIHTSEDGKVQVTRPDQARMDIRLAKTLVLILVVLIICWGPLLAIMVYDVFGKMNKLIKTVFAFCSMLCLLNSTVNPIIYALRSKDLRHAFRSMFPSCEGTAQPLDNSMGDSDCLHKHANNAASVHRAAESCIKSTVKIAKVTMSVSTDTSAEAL
- experiment.description: Agonist activity at recombinant human CB1 receptor expressed in CHO cells assessed as inhibition of forskolin-induced cAMP accumulation by measuring maximum efficacy preincubated for 15 mins followed by forskolin stimulation and measured after 15 mins by HTRF assay relative to control
- Format: functional, cell-based
- run.parameters: filed as agonist, time 30.0 min
Please use Condition met whenever Emax is not below 90%, and Condition not met whenever it is.

- query.smiles: "CCCCCC[Si](C)(C)c1cc(O)c(C2CCCCCC2)c(OC)c1"
  class.label: "Condition not met"
- query.smiles: "CCCC[Si](C)(C)c1cc(O)c2c(c1)OC(C)(C)c1ccc(C)cc1-2"
  class.label: "Condition met"
- query.smiles: "CCCCCC[Si](C)(C)c1cc(O)c(C2CCCC2)c(OC)c1"
  class.label: "Condition not met"
- query.smiles: "CCCCCC[Si](C)(C)c1cc(O)c(C2CCCCC2)c(O)c1"
  class.label: "Condition met"
- query.smiles: "CCCCCC[Si](C)(C)c1cc(O)c2c(c1)OC(C)(C)c1ccc(C)cc1-2"
  class.label: "Condition met"
- query.smiles: "CCCCCC[Si](C)(C)c1cc(O)c([C@H]2C=C(CO)[C@H]3C[C@@H]2C3(C)C)c(O)c1"
  class.label: "Condition met"
- query.smiles: "C=C(C)[C@@H]1CCC(C)=C[C@H]1c1c(O)cc([Si](C)(C)CCCCCC)cc1O"
  class.label: "Condition met"
- query.smiles: "C=C(C)[C@@H]1CCC(C)=C[C@H]1c1c(O)cc([Si](C)(C)CCCC)cc1O"
  class.label: "Condition met"
- query.smiles: "CCCC[Si](C)(C)c1cc(O)c2c(c1)OC(C)(C)c1ccc(CO)cc1-2"
  class.label: "Condition met"
- query.smiles: "CCCCCC[Si](C)(C)c1cc(O)c(C2CCCCC2)c(OC)c1"
  class.label: "Condition not met"
- query.smiles: "CCCC[Si](C)(C)c1cc(O)c(C2CCCCCC2)c(O)c1"
  class.label: "Condition not met"
- query.smiles: "CCCCCC[Si](C)(C)c1cc(O)c2c(c1)OC(C)(C)[C@@H]1CCC(C)=C[C@@H]21"
  class.label: "Condition met"
- query.smiles: "CCCC[Si](C)(C)c1cc(O)c2c(c1)OC(C)(C)[C@@H]1CC=C(CO)C[C@@H]21"
  class.label: "Condition met"
- query.smiles: "CCCCCC[Si](C)(C)c1cc(O)c2c(c1)OC(C)(C)[C@@H]1CC=C(CO)C[C@@H]21"
  class.label: "Condition met"
- query.smiles: "CCCCCC[Si](C)(C)c1cc(O)c(C2CCCCCC2)c(O)c1"
  class.label: "Condition met"
- query.smiles: "CCCCCC[Si](C)(C)c1cc(O)c2c(c1)OC(C)(C)c1ccc(CO)cc1-2"
  class.label: "Condition met"
- query.smiles: "CCCC[Si](C)(C)c1cc(O)c2c(c1)OC(C)(C)[C@@H]1CCC(C)=C[C@@H]21"
  class.label: "Condition met"

---

The reader will find reported AUC(0-t) at 24 h values listed item by item below.
- experiment.description: AUClast in C57BL/6 mouse at 10 mg/kg, ip measured upto 24 hrs by LC-MS/MS analysis
- Type: ADME, organism-based
- Design: time < 24 hrs, dose 10 mg/kg, route ip
- run.parameters: in vivo
recorded.endpoint: AUC(0-t) at 24 h (ng·h/mL)

- query.smiles: "C=C(C)[C@@H]1CCC(C)=C[C@H]1c1c(O)cc([Si](C)(C)CCCCCC)cc1O"
  recorded.endpoint: "AUC(0-t) at 24 h"
  value: 6630
- query.smiles: "CCCCCC[Si](C)(C)c1cc(OC)c([C@H]2C=C(CO)[C@H]3C[C@@H]2C3(C)C)c(OC)c1"
  recorded.endpoint: "AUC(0-t) at 24 h"
  value: 11600

---

- target.system: Cannabinoid receptor 1 (Homo sapiens)
- experiment.description: Displacement of [3H]-CP55940 from recombinant human CB1 receptor expressed in CHO cells assessed as inhibition constant incubated for 120 mins by radioligand binding assay
recorded.endpoint: Ki (nM)

- query.smiles: "CCCC[Si](C)(C)c1cc(O)c(C2CCCCC2)c(OC)c1"
  result.units: "nM"
  value: 671
- query.smiles: "C=C(C)[C@@H]1CCC(C)=C[C@H]1c1c(O)cc([Si](C)(C)CCCCCC)cc1O"
  result.units: "nM"
  value: 1.56
- query.smiles: "CCCCCC[Si](C)(C)c1cc(O)c(C2CCCC2)c(O)c1"
  result.units: "nM"
  value: 64.2
- query.smiles: "CCCCCC[Si](C)(C)c1cc(O)c(C2CCCCC2)c(OC)c1"
  result.units: "nM"
  value: 448
- query.smiles: "CCCC[Si](C)(C)c1cc(O)c2c(c1)OC(C)(C)c1ccc(C)cc1-2"
  result.units: "nM"
  value: 5.15
- query.smiles: "CCCCCC[Si](C)(C)c1cc(O)c2c(c1)OC(C)(C)c1ccc(C)cc1-2"
  result.units: "nM"
  value: 0.79
- query.smiles: "CCCCCC[Si](C)(C)c1cc(OC)c([C@H]2C=C(CO)[C@H]3C[C@@H]2C3(C)C)c(OC)c1"
  result.units: "nM"
  value: 2890
- query.smiles: "CCCCCC[Si](C)(C)c1cc(O)c(C2CCCC2)c(OC)c1"
  result.units: "nM"
  value: 74.8
- query.smiles: "CCCC[Si](C)(C)c1cc(O)c(C2CCCC2)c(OC)c1"
  result.units: "nM"
  value: 600
- query.smiles: "CCCC[Si](C)(C)c1cc(O)c2c(c1)OC(C)(C)c1ccc(CO)cc1-2"
  result.units: "nM"
  value: 2.79
- query.smiles: "C=C(C)[C@@H]1CCC(C)=C[C@H]1c1c(O)cc([Si](C)(C)CCCC)cc1O"
  result.units: "nM"
  value: 15
- query.smiles: "CCCC[Si](C)(C)c1cc(O)c2c(c1)OC(C)(C)[C@@H]1CCC(C)=C[C@@H]21"
  result.units: "nM"
  value: 2.33
- query.smiles: "CCCC[Si](C)(C)c1cc(O)c(C2CCCCCC2)c(O)c1"
  result.units: "nM"
  value: 143
- query.smiles: "CCCCCC[Si](C)(C)c1cc(O)c2c(c1)OC(C)(C)[C@@H]1CC=C(CO)C[C@@H]21"
  result.units: "nM"
  value: 0.43
- query.smiles: "CCCC[Si](C)(C)c1cc(O)c(C2CCCCC2)c(O)c1"
  result.units: "nM"
  value: 241
- query.smiles: "CCCC[Si](C)(C)c1cc(O)c(C2CCCC2)c(O)c1"
  result.units: "nM"
  value: 464
- query.smiles: "CCCCCC[Si](C)(C)c1cc(O)c2c(c1)OC(C)(C)[C@@H]1CCC(C)=C[C@@H]21"
  result.units: "nM"
  value: 0.8
- query.smiles: "CCCC[Si](C)(C)c1cc(O)c2c(c1)OC(C)(C)[C@@H]1CC=C(CO)C[C@@H]21"
  result.units: "nM"
  value: 2.28
- query.smiles: "CCCCCC[Si](C)(C)c1cc(O)c(C2CCCCC2)c(O)c1"
  result.units: "nM"
  value: 17.7
- query.smiles: "CCCCCC[Si](C)(C)c1cc(O)c(C2CCCCCC2)c(O)c1"
  result.units: "nM"
  value: 17.7
- query.smiles: "CCCCCC[Si](C)(C)c1cc(O)c([C@H]2C=C(CO)[C@H]3C[C@@H]2C3(C)C)c(O)c1"
  result.units: "nM"
  value: 14.3
